Values compiled from patent US6177438A.

# Tested on: cultured nerve cells (cerebral cortex)
# TEST_NAME: cells
# PARTICULARS: Rattus norvegicus, Cerebral cortex neuron, 24 h, read-out: ED50 (protection against glutamic acid toxicity)
Catalogue of EC50 values
ASSAY_METRIC: EC50 (nM)

compound="CN(C(=O)Cc1ccc(Cl)c(Cl)c1)[C@@H]1CC[C@@]2(O)[C@H]3Cc4ccc(O)c5c4[C@@]2(CCN3CC2CC2)[C@H]1O5 [Compound 53]" unit_tag=nM experimental_value=2510
compound="CN(C(=O)Cc1cccc(C(F)(F)F)c1)[C@H]1CC[C@@]2(O)[C@H]3Cc4ccc(O)c5c4[C@@]2(CCN3CC2CC2)[C@H]1O5 [Compound 108]" unit_tag=nM experimental_value=250
compound="CN(C(=O)COc1ccccc1)[C@@H]1CC[C@@]2(O)[C@H]3Cc4ccc(O)c5c4[C@@]2(CCN3CC2CC2)[C@H]1O5 [Compound 58]" unit_tag=nM experimental_value=16700

---

# SYSTEM_TESTED: κ receptor (Mus musculus, UniProt P33534)
# Construct: from tissue; host or cells: mouse (male ddy) vas deferens
# Sequence (P33534 whole entry): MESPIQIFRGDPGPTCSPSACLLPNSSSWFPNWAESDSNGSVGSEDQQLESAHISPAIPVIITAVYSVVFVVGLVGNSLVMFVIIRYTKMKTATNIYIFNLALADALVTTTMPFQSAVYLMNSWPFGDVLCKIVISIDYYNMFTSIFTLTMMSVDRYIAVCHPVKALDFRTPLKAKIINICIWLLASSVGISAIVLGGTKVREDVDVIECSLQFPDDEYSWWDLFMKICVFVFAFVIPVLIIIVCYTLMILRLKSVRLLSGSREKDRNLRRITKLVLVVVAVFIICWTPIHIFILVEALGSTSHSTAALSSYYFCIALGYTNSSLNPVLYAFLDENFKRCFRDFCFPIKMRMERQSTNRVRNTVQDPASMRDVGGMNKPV
# TEST_NAME: Opioid activity test using an extracted mouse vas deferens preparation, Ke with norBNI
# Design: species or system male ddy mouse
# PARTICULARS: κ, norBNI added
# Experimental: A male ddy mouse was used in this test. […] Tissue contractions were recorded on a polygraph using an isometric transducer. After adequately washing with nutrient solution and the contraction reaction stabilized, the μ agonist, naloxone, the δ agonist, NTI, or the κ agonist, norBNI, was added after which the test compound was again cumulatively added after roughly 20 minutes. The Ke value was calculated using the following calculation formula from the difference in the efficacies of both agonists. […]
ASSAY_METRIC: Ke, norBNI (nM)

compound="CN(C(=O)/C=C/c1cccc([N+](=O)[O-])c1)[C@@H]1CC[C@@]2(O)[C@H]3Cc4ccc(O)c5c4[C@@]2(CCN3CC2CC2)[C@H]1O5 [Compound 104]" assay_metric="Ke, norBNI" experimental_value=1.40
compound="CN(C(=O)/C=C/c1cccc([N+](=O)[O-])c1)[C@H]1CC[C@@]2(O)[C@H]3Cc4ccc(O)c5c4[C@@]2(CCN3CC2CC2)[C@H]1O5 [Compound 97]" assay_metric="Ke, norBNI" experimental_value=13.9
compound="CN(C(=O)/C=C/c1cccc(C(F)(F)F)c1)[C@@H]1CC[C@@]2(O)[C@H]3Cc4ccc(O)c5c4[C@@]2(CCN3CC2CC2)[C@H]1O5 [Compound 60]" assay_metric="Ke, norBNI" experimental_value=3.20

---

Catalogue of Ke, Naloxone values
# SYSTEM_TESTED: μ receptor (Mus musculus, UniProt P42866)
# Construct: naloxone as mu antagonist (printed 'agonist')
# Sequence (P42866 whole entry): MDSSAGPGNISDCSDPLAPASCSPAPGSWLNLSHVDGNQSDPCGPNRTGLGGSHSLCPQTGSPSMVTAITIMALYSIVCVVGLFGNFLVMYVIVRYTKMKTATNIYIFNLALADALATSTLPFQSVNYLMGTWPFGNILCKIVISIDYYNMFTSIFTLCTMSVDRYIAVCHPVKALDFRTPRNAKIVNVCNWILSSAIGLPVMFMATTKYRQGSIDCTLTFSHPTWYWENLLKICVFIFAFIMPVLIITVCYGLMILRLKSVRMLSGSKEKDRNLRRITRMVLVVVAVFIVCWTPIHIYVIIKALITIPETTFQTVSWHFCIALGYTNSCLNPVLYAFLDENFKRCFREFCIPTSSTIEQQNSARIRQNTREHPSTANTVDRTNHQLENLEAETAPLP
# TEST_NAME: Opioid activity test using an extracted mouse vas deferens preparation, Ke with naloxone
# Design: species or system male ddy mouse
# PARTICULARS: naloxone added
ASSAY_METRIC: Ke, Naloxone (nM)

smiles_structure=CN(C(=O)/C=C/c1ccccc1)[C@H]1CC[C@@]2(O)[C@H]3Cc4ccc(O)c5c4[C@@]2(CCN3CC2CC2)[C@H]1O5 system_tested="μ receptor (Mus musculus, UniProt P42866)" assay_metric="Ke, Naloxone" experimental_value=16.5
smiles_structure=CCCCCC(=O)N(C)[C@H]1CC[C@@]2(O)[C@H]3Cc4ccc(O)c5c4[C@@]2(CCN3CC2CC2)[C@H]1O5 system_tested="μ receptor (Mus musculus, UniProt P42866)" assay_metric="Ke, Naloxone" experimental_value=89.9
smiles_structure=CN(C(=O)C#Cc1ccccc1)[C@@H]1CC[C@@]2(O)[C@H]3Cc4ccc(O)c5c4[C@@]2(CCN3CC2CC2)[C@H]1O5 system_tested="μ receptor (Mus musculus, UniProt P42866)" assay_metric="Ke, Naloxone" experimental_value=25.4

---

# SYSTEM_TESTED: δ receptor (Mus musculus)
# Construct: The vas deferens extracted from the animal was suspended in a Magnus tube; from tissue; host or cells: mouse (male ddy) vas deferens
# Sequence (P32300 whole entry): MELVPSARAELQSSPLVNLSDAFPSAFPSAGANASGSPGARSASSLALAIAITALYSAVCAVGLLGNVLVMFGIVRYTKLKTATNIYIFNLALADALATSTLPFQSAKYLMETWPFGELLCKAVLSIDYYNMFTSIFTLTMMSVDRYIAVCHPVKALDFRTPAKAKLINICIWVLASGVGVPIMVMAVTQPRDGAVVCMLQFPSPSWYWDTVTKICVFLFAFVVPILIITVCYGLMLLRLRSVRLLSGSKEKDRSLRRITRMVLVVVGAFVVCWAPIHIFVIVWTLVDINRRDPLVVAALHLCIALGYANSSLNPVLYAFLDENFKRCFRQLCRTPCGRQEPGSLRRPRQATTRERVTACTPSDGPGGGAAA
# Parameters: species or system male ddy mouse
# PARTICULARS: mouse vas deferens, δ, NTI added
Catalogue of Ke, NTI values
ASSAY_METRIC: Ke, NTI (nM)

smiles_structure=CN(C(=O)COc1ccccc1)[C@H]1CC[C@@]2(O)[C@H]3Cc4ccc(O)c5c4[C@@]2(CCN3CC2CC2)[C@H]1O5 system_tested="δ receptor (Mus musculus)" assay_metric="Ke, NTI" unit_tag=nM experimental_value=16.6
smiles_structure=CC(=O)Oc1ccc2c3c1O[C@H]1[C@H](N(C)C(=O)/C=C/c4ccccc4)CC[C@@]4(O)[C@@H](C2)N(CC2CC2)CC[C@]314 system_tested="δ receptor (Mus musculus)" assay_metric="Ke, NTI" unit_tag=nM experimental_value=261
smiles_structure=CN(C(=O)CCc1ccccc1)[C@H]1CC[C@@]2(O)[C@H]3Cc4ccc(O)c5c4[C@@]2(CCN3CC2CC2)[C@H]1O5 system_tested="δ receptor (Mus musculus)" assay_metric="Ke, NTI" unit_tag=nM experimental_value=545
smiles_structure=CN(C(=O)/C=C/C1CCCCC1)[C@@H]1CC[C@@]2(O)[C@H]3Cc4ccc(O)c5c4[C@@]2(CCN3CC2CC2)[C@H]1O5 system_tested="δ receptor (Mus musculus)" assay_metric="Ke, NTI" unit_tag=nM experimental_value=143
smiles_structure=CN(C(=O)OCc1ccccc1)[C@H]1CC[C@@]2(O)[C@H]3Cc4ccc(O)c5c4[C@@]2(CCN3CC2CC2)[C@H]1O5 system_tested="δ receptor (Mus musculus)" assay_metric="Ke, NTI" unit_tag=nM experimental_value=63.5
smiles_structure=CCCCOC(=O)N(C)[C@@H]1CC[C@@]2(O)[C@H]3Cc4ccc(O)c5c4[C@@]2(CCN3CC2CC2)[C@H]1O5 system_tested="δ receptor (Mus musculus)" assay_metric="Ke, NTI" unit_tag=nM experimental_value=47.3
smiles_structure=CCCCOC(=O)N(C)[C@H]1CC[C@@]2(O)[C@H]3Cc4ccc(O)c5c4[C@@]2(CCN3CC2CC2)[C@H]1O5 system_tested="δ receptor (Mus musculus)" assay_metric="Ke, NTI" unit_tag=nM experimental_value=10.4
smiles_structure=CN(C(=O)/C=C/c1ccsc1)[C@H]1CC[C@@]2(O)[C@H]3Cc4ccc(O)c5c4[C@@]2(CCN3CC2CC2)[C@H]1O5 system_tested="δ receptor (Mus musculus)" assay_metric="Ke, NTI" unit_tag=nM experimental_value=450
smiles_structure=CN(C(=O)/C=C/c1ccccc1)[C@H]1CC[C@@]2(O)[C@H]3Cc4ccc(O)c5c4[C@@]2(CCN3CC2CC2)[C@H]1O5 system_tested="δ receptor (Mus musculus)" assay_metric="Ke, NTI" unit_tag=nM experimental_value=0.426
smiles_structure=CN(C(=O)Cc1ccc(Cl)c(Cl)c1)[C@H]1CC[C@@]2(O)[C@H]3Cc4ccc(O)c5c4[C@@]2(CCN3CC2CC2)[C@H]1O5 system_tested="δ receptor (Mus musculus)" assay_metric="Ke, NTI" unit_tag=nM experimental_value=17.3
smiles_structure=CN(C(=O)/C=C/c1cccc([N+](=O)[O-])c1)[C@H]1CC[C@@]2(O)[C@H]3Cc4ccc(O)c5c4[C@@]2(CCN3CC2CC2)[C@H]1O5 system_tested="δ receptor (Mus musculus)" assay_metric="Ke, NTI" unit_tag=nM experimental_value=2.92
smiles_structure=CC(=O)Oc1ccc2c3c1O[C@H]1[C@H](N(C)C(=O)/C=C/c4cccc(C(F)(F)F)c4)CC[C@@]4(O)[C@@H](C2)N(CC2CC2)CC[C@]314 system_tested="δ receptor (Mus musculus)" assay_metric="Ke, NTI" unit_tag=nM experimental_value=184

---

# TEST_NAME: Diuretic action (urine output for 5 hours after physiological saline loading in rats)
# Assay type: in vivo, male Wistar rats
# PARTICULARS: Rattus norvegicus, sc, dose giving urine output of 500 (non-dosed group = 100), 5 hours after saline 20 ml/kg p.o.
ASSAY_METRIC: ED (500% urine output) (mg/kg)

smiles_structure=CN(C(=O)CCCc1ccccc1)[C@@H]1CC[C@@]2(O)[C@H]3Cc4ccc(O)c5c4[C@@]2(CCN3CC2CC2)[C@H]1O5 assay_metric="ED (500% urine output)" unit_tag=mg/kg experimental_value=0.762
smiles_structure=CN(C(=O)CSc1ccccc1)[C@H]1CC[C@@]2(O)[C@H]3Cc4ccc(O)c5c4[C@@]2(CCN3CC2CC2)[C@H]1O5 assay_metric="ED (500% urine output)" unit_tag=mg/kg experimental_value=0.857
smiles_structure=CN(C(=O)CCc1ccccc1)[C@@H]1CC[C@@]2(O)[C@H]3Cc4ccc(O)c5c4[C@@]2(CCN3CC2CC2)[C@H]1O5 assay_metric="ED (500% urine output)" unit_tag=mg/kg experimental_value=1.26

---

# TEST_NAME: Diuretic action (urine output for 5 hours after physiological saline loading in rats)
# Type: in vivo, male Wistar rats
# PARTICULARS: Rattus norvegicus, sc, dose giving urine output of 500 (non-dosed group = 100), 5 hours after saline 20 ml/kg p.o.
Structures can show the parent of a compound that is named as a salt.
ASSAY_METRIC: ED (500% urine output) (mg/kg)

molecule="CN(C(=O)/C=C/c1cccc(Cl)c1)[C@@H]1CC[C@@]2(O)[C@H]3Cc4ccc(O)c5c4[C@@]2(CCN3CC2CC2)[C@H]1O5 [Compound 154, hydrochloride]" experimental_value=0.27
molecule=C/C=C/C=C/C(=O)N(C)[C@@H]1CC[C@@]2(O)[C@H]3Cc4ccc(O)c5c4[C@@]2(CCN3CC2CC2)[C@H]1O5 experimental_value=0.0045
molecule=CN(C(=O)C#Cc1ccccc1)[C@@H]1CC[C@@]2(O)[C@H]3Cc4ccc(O)c5c4[C@@]2(CCN3CC2CC2)[C@H]1O5 experimental_value=0.226
molecule=CN(C(=O)/C=C/c1cccc([N+](=O)[O-])c1)[C@H]1CC[C@@]2(O)[C@H]3Cc4ccc(O)c5c4[C@@]2(CCN3CC2CC2)[C@H]1O5 experimental_value=0.0939
molecule="CN(C(=O)/C=C/c1ccc(Cl)cc1)[C@@H]1CC[C@@]2(O)[C@H]3Cc4ccc(O)c5c4[C@@]2(CCN3CC2CC2)[C@H]1O5 [Compound 152, hydrochloride]" experimental_value=0.00953
molecule=CN(C(=O)Cc1ccc(Br)cc1)[C@H]1CC[C@@]2(O)[C@H]3Cc4ccc(O)c5c4[C@@]2(CCN3CC2CC2)[C@H]1O5 experimental_value=3.8
molecule=CN(C(=O)/C=C/c1cccc(C(F)(F)F)c1)[C@@H]1CC[C@@]2(O)[C@H]3Cc4ccc(O)c5c4[C@@]2(CCN3CC2CC2)[C@H]1O5 experimental_value=1.13
molecule=CN(C(=O)CCc1ccccc1)[C@H]1CC[C@@]2(O)[C@H]3Cc4ccc(O)c5c4[C@@]2(CCN3CC2CC2)[C@H]1O5 experimental_value=0.017
molecule=CN(C(=O)Cc1ccc(F)c(F)c1)[C@H]1CC[C@@]2(O)[C@H]3Cc4ccc(O)c5c4[C@@]2(CCN3CC2CC2)[C@H]1O5 experimental_value=3.3
molecule=CN(C(=O)CCCc1ccccc1)[C@H]1CC[C@@]2(O)[C@H]3Cc4ccc(O)c5c4[C@@]2(CCN3CC2CC2)[C@H]1O5 experimental_value=5.19
molecule=COc1cccc(C#CC(=O)N(C)[C@@H]2CC[C@@]3(O)[C@H]4Cc5ccc(O)c6c5[C@@]3(CCN4CC3CC3)[C@H]2O6)c1.O=C(O)C(O)C(O)C(=O)O experimental_value=1.55
molecule=CN(C(=O)COc1ccccc1)[C@H]1CC[C@@]2(O)[C@H]3Cc4ccc(O)c5c4[C@@]2(CCN3CC2CC2)[C@H]1O5 experimental_value=0.281
molecule=CN(C(=O)CSc1ccccc1)[C@@H]1CC[C@@]2(O)[C@H]3Cc4ccc(O)c5c4[C@@]2(CCN3CC2CC2)[C@H]1O5 experimental_value=5.31
molecule=CN(C(=O)Cc1ccc(Cl)c(Cl)c1)[C@@H]1CC[C@@]2(O)[C@H]3Cc4ccc(O)c5c4[C@@]2(CCN3CC2CC2)[C@H]1O5 experimental_value=0.658
molecule=CCC/C=C/C(=O)N(C)[C@H]1CC[C@@]2(O)[C@H]3Cc4ccc(O)c5c4[C@@]2(CCN3CC2CC2)[C@H]1O5 experimental_value=0.0968
molecule=CN(C(=O)CC(=O)c1ccccc1)[C@@H]1CC[C@@]2(O)[C@H]3Cc4ccc(O)c5c4[C@@]2(CCN3CC2CC2)[C@H]1O5 experimental_value=5.65
molecule=CN(C(=O)/C=C/c1ccccc1)[C@@H]1CC[C@@]2(O)[C@H]3Cc4ccc(O)c5c4[C@@]2(CCN3CC2CC2)[C@H]1O5 experimental_value=0.0309
molecule=Cc1cccc(C#CC(=O)N(C)[C@@H]2CC[C@@]3(O)[C@H]4Cc5ccc(O)c6c5[C@@]3(CCN4CC3CC3)[C@H]2O6)c1.Cl experimental_value=3.03
molecule=CN(C(=O)Cc1cccc(C(F)(F)F)c1)[C@H]1CC[C@@]2(O)[C@H]3Cc4ccc(O)c5c4[C@@]2(CCN3CC2CC2)[C@H]1O5 experimental_value=5.11
molecule=CCCCCC(=O)N(C)[C@H]1CC[C@@]2(O)[C@H]3Cc4ccc(O)c5c4[C@@]2(CCN3CC2CC2)[C@H]1O5 experimental_value=0.228
molecule="CN(C(=O)/C=C/c1cccc(Br)c1)[C@@H]1CC[C@@]2(O)[C@H]3Cc4ccc(O)c5c4[C@@]2(CCN3CC2CC2)[C@H]1O5 [Compound 151, hydrobromide]" experimental_value=1.56
molecule="CN(C(=O)/C=C/c1ccc(Br)cc1)[C@@H]1CC[C@@]2(O)[C@H]3Cc4ccc(O)c5c4[C@@]2(CCN3CC2CC2)[C@H]1O5 [Compound 156, hydrobromide]" experimental_value=0.355
molecule=CCCCCC(=O)N(C)[C@@H]1CC[C@@]2(O)[C@H]3Cc4ccc(O)c5c4[C@@]2(CCN3CC2CC2)[C@H]1O5 experimental_value=7.04
molecule=CN(C(=O)OCc1ccccc1)[C@H]1CC[C@@]2(O)[C@H]3Cc4ccc(O)c5c4[C@@]2(CCN3CC2CC2)[C@H]1O5 experimental_value=0.0061
